Task for the reader: assign each of the following compounds its reported selectivity ratio at 96 h.
Protocol Summary: Selectivity index, ratio of CC50 for Macaca mulatta hepatocytes to IC50 for antiplasmodial activity against hypnozoite Plasmodium cynomolgi B strain infected in Macaca mulatta hepatocytes incubated with sporozoite containing salivary gland homogenate obtained from dissected Anopheles dirus mosquitoes (infected with Plasmodium cynomolgi B strain) treatment started on day 4 post infection and continued daily for 4 days into fresh changed media until day 8 assessed as Liver stage (LS) activity by measuring radical cure mode by immunofluorescent staining analysis
Assay type: toxicity, cell-based
Test Conditions: rhesus monkey, read-out: Selectivity Index
Could you respond with only the numeric value?

Exercise: Given O=c1c2ccccc2[nH]c2cc(Oc3ccc(OC(F)(F)F)cc3)ccc12 , respond with its selectivity ratio at 96 h.
Solution: 1.05

Exercise: Given CC(C)(C)OC(=O)N1CCC(Oc2ccc3c(=O)c4c(F)cc(Cl)cc4[nH]c3c2)C1 (stereo unspecified) , respond with its selectivity ratio at 96 h.
Solution: 4.96

Exercise: Given O=c1c2ccc(OCc3cccc(OC(F)(F)F)c3)cc2[nH]c2cc(Cl)cc(F)c12 , respond with its selectivity ratio at 96 h.
Solution: 4.66

Exercise: Given O=c1c2c([nH]c3cc(Nc4ccc(OC(F)(F)F)cc4)ccc13)CCCC2 , respond with its selectivity ratio at 96 h.
Solution: 1.4

Exercise: Given O=c1c2c([nH]c3cc(Oc4cccc(OC(F)(F)F)c4)ccc13)CCCC2 , respond with its selectivity ratio at 96 h.
Solution: 1.25

Exercise: Given O=c1c2ccc(Oc3ccc(OC(F)(F)F)cc3)cc2[nH]c2ccc(Cl)c(F)c12 , respond with its selectivity ratio at 96 h.
Solution: 1.11

Exercise: Given O=c1c2ccc(Oc3ccccc3OC(F)(F)F)cc2[nH]c2cc(Cl)cc(F)c12 , respond with its selectivity ratio at 96 h.
Solution: 2.02

Exercise: Given COc1ccc(Oc2ccc3c(=O)c4c(F)cc(Cl)cc4[nH]c3c2)cc1 , respond with its selectivity ratio at 96 h.
Solution: 1.79

Exercise: Given COc1cc(C)c2c(Oc3cccc(C(F)(F)F)c3)c(OC)cc(NC(C)CCCN)c2n1 (stereo unspecified) [TAFENOQUINE] , respond with its selectivity ratio at 96 h.
Solution: 1.95

Exercise: Given O=c1c2c([nH]c3cc(Oc4ccc(OC(F)(F)F)cc4)c(F)cc13)CCCC2 , respond with its selectivity ratio at 96 h.
Solution: 1.49

Exercise: Given O=c1c2ccc(Oc3ccc(OC(F)(F)F)cc3)cc2[nH]c2ccc(F)c(Cl)c12 , respond with its selectivity ratio at 96 h.
Solution: 1.31

Exercise: Given O=c1c2ccc(OCc3cccc(OC(F)(F)F)c3)cc2[nH]c2cc(F)cc(Cl)c12 , respond with its selectivity ratio at 96 h.
Solution: 1.4

###

Protocol Summary: Selectivity index, ratio of CC50 for Macaca mulatta hepatocytes to IC50 for antiplasmodial activity against hypnozoite Plasmodium cynomolgi B strain infected in Macaca mulatta hepatocytes incubated with sporozoite containing salivary gland homogenate obtained from dissected Anopheles dirus mosquitoes (infected with Plasmodium cynomolgi B strain) treatment started on day 4 post infection and continued daily for 4 days into fresh changed media until day 8 assessed as Liver stage (LS) activity by measuring prophylactic mode by immunofluorescent staining analysis
Format: toxicity, cell-based
Test Conditions: rhesus monkey, read-out: Selectivity Index
Task for the reader: assign each of the following compounds its reported selectivity ratio at 96 h.

Exercise: Given O=c1c2c([nH]c3cc(Oc4ccccc4OC(F)(F)F)ccc13)CCCC2 , respond with its selectivity ratio at 96 h.
Solution: > 2.59

Exercise: Given O=c1c2ccc(OCc3cccc(OC(F)(F)F)c3)cc2[nH]c2cc(Cl)cc(F)c12 , respond with its selectivity ratio at 96 h.
Solution: 12.6

Exercise: Given O=c1c2ccccc2[nH]c2cc(Oc3ccc(OC(F)(F)F)cc3)ccc12 , respond with its selectivity ratio at 96 h.
Solution: 2.01

Exercise: Given CC(C)(C)OC(=O)N1CCC(Oc2ccc3c(=O)c4c(F)cc(Cl)cc4[nH]c3c2)CC1 , respond with its selectivity ratio at 96 h.
Solution: 4.62

Exercise: Given O=c1c2ccc(OC3CCNCC3)cc2[nH]c2cc(F)cc(Cl)c12 , respond with its selectivity ratio at 96 h.
Solution: > 3.36

Exercise: Given O=c1c2c([nH]c3cc(Oc4ccc(OC(F)(F)F)cc4)c(F)cc13)CCCC2 , respond with its selectivity ratio at 96 h.
Solution: 5.18

Exercise: Given O=c1c2ccc(Oc3cccc(OC(F)(F)F)c3)cc2[nH]c2cc(Cl)cc(F)c12 , respond with its selectivity ratio at 96 h.
Solution: > 35.7

Exercise: Given O=c1c2ccc(OCc3ccc(OC(F)(F)F)cc3)cc2[nH]c2cc(Cl)cc(F)c12 , respond with its selectivity ratio at 96 h.
Solution: 1.76

Exercise: Given O=c1c2ccc(OCc3cccc(OC(F)(F)F)c3)cc2[nH]c2cc(F)cc(Cl)c12 , respond with its selectivity ratio at 96 h.
Solution: 5.09

Exercise: Given O=c1c2c([nH]c3cc(Oc4ccc(OC(F)(F)F)cc4)ccc13)CCCC2 , respond with its selectivity ratio at 96 h.
Solution: 1.79

###

Protocol Summary: Selectivity index, ratio of CC50 for Macaca mulatta hepatocytes to IC50 for antiplasmodial activity against schizont Plasmodium cynomolgi B strain infected in Macaca mulatta hepatocytes incubated with sporozoite containing salivary gland homogenate obtained from dissected Anopheles dirus mosquitoes (infected with Plasmodium cynomolgi B strain) treatment started on day 4 post infection and continued daily for 4 days into fresh changed media until day 8 assessed as Liver stage (LS) activity by measuring prophylactic mode by immunofluorescent staining analysis
Assay type: toxicity, cell-based
Test Conditions: rhesus monkey, read-out: Selectivity Index
Measured Metric: selectivity ratio at 96 h

Exercise: Given O=c1c2c([nH]c3cc(Oc4ccc(OC(F)(F)F)cc4)c(F)cc13)CCCC2 , respond with its selectivity ratio at 96 h.
Solution: 31.1

Exercise: Given O=c1c2cccc(Oc3ccc(OC(F)(F)F)cc3)c2[nH]c2cc(Cl)cc(F)c12 , respond with its selectivity ratio at 96 h.
Solution: > 6.01

Exercise: Given O=c1c2ccc(Oc3ccc(OC(F)(F)F)cc3)cc2[nH]c2cc(Cl)c(F)cc12 , respond with its selectivity ratio at 96 h.
Solution: > 74.1

Exercise: Given CCN(CC)CCOc1ccc2c(=O)c3c([nH]c2c1)CCCC3 , respond with its selectivity ratio at 96 h.
Solution: > 1.43

Exercise: Given O=c1c2c([nH]c3cc(Nc4ccc(OC(F)(F)F)cc4)ccc13)CCCC2 , respond with its selectivity ratio at 96 h.
Solution: 8.62

Exercise: Given O=c1c2c([nH]c3cc(Oc4ccc(OC(F)(F)F)cc4)ccc13)CCCC2 , respond with its selectivity ratio at 96 h.
Solution: 4.69

Exercise: Given O=c1c2c([nH]c3c(Oc4ccc(OC(F)(F)F)cc4)cccc13)CCCC2 , respond with its selectivity ratio at 96 h.
Solution: > 2.62

Exercise: Given CCCN(CCC)CCCOc1ccc2c(=O)c3c([nH]c2c1)CCCC3 , respond with its selectivity ratio at 96 h.
Solution: > 3.75

Exercise: Given O=c1c2ccc(Oc3ccccc3OC(F)(F)F)cc2[nH]c2cc(Cl)cc(F)c12 , respond with its selectivity ratio at 96 h.
Solution: 115

Exercise: Given O=c1c2ccc(OCc3cccc(C(F)(F)F)c3)cc2[nH]c2ccc(Cl)c(F)c12 , respond with its selectivity ratio at 96 h.
Solution: > 250

Exercise: Given CCCN(CCC)CCOc1ccc2c(=O)c3c([nH]c2c1)CCCC3 , respond with its selectivity ratio at 96 h.
Solution: > 2.03

Exercise: Given O=c1c2c([nH]c3cc(OCc4ccc(OC(F)(F)F)cc4)ccc13)CCCC2 , respond with its selectivity ratio at 96 h.
Solution: > 5.52

Exercise: Given CCCCN(CCCC)CCCOc1ccc2c(=O)c3c([nH]c2c1)CCCC3 , respond with its selectivity ratio at 96 h.
Solution: > 4.06

Exercise: Given O=c1c2ccc(Oc3cccc(OC(F)(F)F)c3)cc2[nH]c2cc(Cl)cc(F)c12 , respond with its selectivity ratio at 96 h.
Solution: > 667

Exercise: Given O=c1c2cc(F)c(Oc3ccc(OC(F)(F)F)cc3)cc2[nH]c2cc(Cl)cc(F)c12 , respond with its selectivity ratio at 96 h.
Solution: 14.5

Exercise: Given O=c1c2ccc(Oc3cccc(OC(F)(F)F)c3)cc2[nH]c2cc(F)c(Cl)cc12 , respond with its selectivity ratio at 96 h.
Solution: > 167

Exercise: Given O=c1c2c(F)cc(Cl)cc2[nH]c2cccc(Oc3ccc(OC(F)(F)F)cc3)c12 , respond with its selectivity ratio at 96 h.
Solution: > 2.71

Exercise: Given O=c1c2c([nH]c3cccc(Oc4ccc(OC(F)(F)F)cc4)c13)CCCC2 , respond with its selectivity ratio at 96 h.
Solution: 1.79

Exercise: Given CC(C)(C)OC(=O)N1CCC(Oc2ccc3c(=O)c4c(Cl)cc(F)cc4[nH]c3c2)CC1 , respond with its selectivity ratio at 96 h.
Solution: 31.5

Exercise: Given O=c1c2ccc(OCc3cccc(OC(F)(F)F)c3)cc2[nH]c2ccc(Cl)c(F)c12 , respond with its selectivity ratio at 96 h.
Solution: > 333

Values from ChEMBL document CHEMBL6134844
